FYI, the data here is from patent US10202343B2.

# IC50 per record follows
biological target: Human MIF (MIF tautomerase activity) (Homo sapiens); construct: made in house; assay: HPP tautomerase assay; format: biochemical; conditions: Table 20; read-out: HPP IC50
Sequence (P14174 2-115 limits assumed): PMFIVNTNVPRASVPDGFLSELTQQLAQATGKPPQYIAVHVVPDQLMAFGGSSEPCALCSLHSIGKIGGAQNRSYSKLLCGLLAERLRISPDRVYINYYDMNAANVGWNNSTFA
Assay endpoint: IC50 (µM)

| Chem smiles | Reported |
| --- | --- |
| Oc1ccc(-c2cn(-c3cccnc3)nn2)cc1 | 970 |
| Oc1ccc(-c2cn(-c3cncc4ccccc34)nn2)cc1 | 32 |

###

target: MIF-CD74 Binding (biotin-labeled recombinant human MIF, recombinant human MIF receptor CD74 ectodomain) (Homo sapiens); assay: MIF-CD74 binding (capture) assay; design: unit not given here; settings: Table 18
Assay endpoint: concentration of C74 % MaxInhib (number after @)

| Compound | Reported |
| --- | --- |
| COc1ccc(Cc2cn(-c3ccc(O)cc3)nn2)cc1OC [MIF-090] | 0.078 |
| Oc1ccc(-n2cc(Cc3ccccc3O)nn2)cc1 [MIF-071] | 0.24 |
| COc1cccc(Cc2cn(-c3ccc(O)cc3)nn2)c1 [MIF-074] | 0.24 |
| COc1cccc(C(=O)c2cn(-c3ccc(O)cc3)nn2)c1 [MIF-076] | 0.0078 |
| Oc1ccc(-n2cc(Cc3ccccc3)nn2)cc1F [MIF-069] | 0.0078 |
| COc1ccc(Cc2cn(-c3ccc(O)cc3)nn2)cc1 [MIF-086] | 0.078 |
| Oc1ccc(Cc2cn(-c3ccc(O)cc3)nn2)cc1 [MIF-087] | 0.078 |
| Cc1cccc(Cc2cn(-c3ccc(O)cc3)nn2)c1 [MIF-079] | 0.078 |
| COc1ccccc1Cc1cn(-c2ccc(O)cc2)nn1 [MIF-070] | 0.0078 |

###

molecular target: MIF-CD74 Binding (biotin-labeled recombinant human MIF, recombinant human MIF receptor CD74 ectodomain) (Homo sapiens); experiment: MIF-CD74 binding (capture) assay; conditions: Table 3
Quick rule for you: Capture % Max. Inhib. at 10% or higher means satisfied, lower means not satisfied.

| Chem smiles | Cat |
| --- | --- |
| COc1ccccc1-n1sc2ccc(Cl)cc2c1=O | not satisfied |
| N#Cc1ccc2c(=O)n(-c3ccc(Cl)cc3)sc2c1 | satisfied |
| O=c1c2cc(C(F)(F)F)ccc2sn1-c1ccc(Cl)cc1 | satisfied |
| O=c1c2cc(F)ccc2sn1-c1ccc(Cl)cc1 | not satisfied |
| O=c1c2cc([N+](=O)[O-])ccc2sn1-c1ccc(Cl)cc1 | satisfied |
| O=c1c2ccc(F)cc2sn1-c1cccc(CO)c1 | not satisfied |
| CC(=O)OCc1cccc(-n2sc3cc(F)ccc3c2=O)c1 | satisfied |
| O=c1c2cc(F)ccc2sn1-c1cccc(O)c1 | satisfied |

###

In this section, each of the compounds is paired with its reported concentration of CD74 % MaxInhib (number after @).
biological target: MIF-CD74 Binding (biotin-labeled recombinant human MIF, recombinant human MIF receptor CD74 ectodomain) (Homo sapiens); assay: MIF-CD74 binding (capture) assay; conditions: Table 7
Assay endpoint: concentration of CD74 % MaxInhib (number after @) (µM)

| Chem smiles | Reported |
| --- | --- |
| Clc1ccc(-c2nc3cc(Cl)ccc3o2)cc1 | 3.76 |
| Cc1ccc2oc(-c3ccc(Cl)cc3)nc2c1 | 0.078 |
| Clc1ccc2nc(-c3ccccc3)oc2c1 | 0.078 |
| Clc1ccc(-c2nc3ccc(Cl)cc3o2)cc1 | 0.078 |
| Cc1ccc2nc(-c3ccc(Cl)cc3)oc2c1 | 3.76 |
